Numbers sourced from PubChem BioAssay (NCI).

test.name: NCI Yeast Anticancer Drug Screen. Data for the cln2 rad14 strain (AID 165)
condition.set: S. cerevisiae cln2 rad14 strain, at 50.0 µM
About 79,000 compounds went through this panel and 15% of them were active in at least one assay; those are over-represented in the sample as a whole. Active and inactive are the calls of the source. Rule as the data show it: active = growth inhibition above about 70%; inactive = the rest.
Pick one: TRUE = active, FALSE = inactive

The following compounds have reported results that may help.
compound=c1ccc(SSc2ccccn2)nc1 label_class=TRUE
compound="C=CCN1CCC(OC(=O)C(O)(C#CC)C2CCCC2)CC1 (stereo unspecified)" label_class=FALSE
compound=CCCCNc1ncc(OCC)c(NCCCC)n1 label_class=FALSE
compound=CCC[CH2][Sn]([CH2]CCC)([O]C(=O)c1cc(OC)c(OC)c(OC)c1)[O]C(=O)c1cc(OC)c(OC)c(OC)c1 label_class=TRUE
compound="CC/C=C\\C/C=C\\C/C=C\\CCCCCCCC(=O)OCC(O)CO (stereo unspecified)" label_class=FALSE

In the following, a different compound is considered.
QUERY: Could you check what this test reported for `O=C1c2scc(-c3ccccc3)c2-n2cccc21` ?
RESULT: TRUE
